Molecular target: T1, DRB7.2;DRB4 (Arabidopsis thaliana;Arabidopsis …, UniProt F4JHB3;Q8H1D4 1-190;1-355, |)
T1 sequence 1: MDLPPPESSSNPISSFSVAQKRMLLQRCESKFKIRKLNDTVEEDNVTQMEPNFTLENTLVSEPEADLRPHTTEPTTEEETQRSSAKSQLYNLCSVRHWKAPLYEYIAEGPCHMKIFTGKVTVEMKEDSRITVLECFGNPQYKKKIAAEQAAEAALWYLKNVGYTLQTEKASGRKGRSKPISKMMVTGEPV
T1 sequence 2: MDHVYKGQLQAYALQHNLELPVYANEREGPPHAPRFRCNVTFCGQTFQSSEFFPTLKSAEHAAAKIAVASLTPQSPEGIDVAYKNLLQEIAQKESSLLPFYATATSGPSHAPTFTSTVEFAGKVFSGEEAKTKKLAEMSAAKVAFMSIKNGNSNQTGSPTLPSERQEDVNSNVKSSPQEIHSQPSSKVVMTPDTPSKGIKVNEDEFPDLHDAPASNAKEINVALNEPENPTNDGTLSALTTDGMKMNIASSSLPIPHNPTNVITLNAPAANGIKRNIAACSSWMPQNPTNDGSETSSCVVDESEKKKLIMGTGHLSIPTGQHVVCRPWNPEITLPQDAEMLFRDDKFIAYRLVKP
Assay: EMSA; apparent Kd; Hill 2.05±0.65; EMSA: 50 mM potassium phosphate pH 7.0, 50 mM NaCl, 50 mM Na2SO4, 2 mM DTT; 40 bp RNA at 750 nM, 30 min, room temperature; 32P 80 bp dsRNA at 1 nM, 1 h, 4 C
Details: protein: recombinant;recombinant, tags: His6 tag with TEV cleavage (pETtrx-1b);, label: none (SYBR Gold stain), 1 nt 3' overhang (C) on complementary strand
VALUE_TYPE: Kd (nM)
One number for each entry, in nM.

Quick one: give measured Kd for 40 bp RNA (pre-siRNA) (dsRNA, 5'-phosphate on guide strand) RNA 1: AACAAGCGAAUGAGUCAUUCAUCCUAAGUCUGCAUAAAGU RNA 2: ACUUUAUGCAGACUUAGGAUGAAUGACUCAUUCGCUUGUUC
1020
